TEST_DESCRIPTION: qHTS RealTime-Glo MT Cell Viability Assay in HepG2 cells - 40 hour (AID 1224870); also: nearly all actives have a fitted effect of over 50% in size
EXPERIMENTAL_CONDITIONS: RealTime-Glo luminescence; series mostly up to 76.8 µM
Records with an inconclusive call do not appear. Calls of active or inactive are those of the source. Calls follow the shape of the dose curve; as a rule, active = well fitted cell-killing curve with a large enough effect in the repeat runs; inconclusive = weak or mixed curves, or effect the other way; inactive = flat fitted curve, though single readings scatter.
QUANTITY: outcome

Any idea what outcome was measured for CCCC1COC(Cn2cncn2)(c2ccc(Cl)cc2Cl)O1 (stereo not drawn) ?
inactive

Any idea what outcome was measured for O=S(=O)(c1ccc(Cl)cc1)c1cc(Cl)c(Cl)cc1Cl ?
inactive

Any idea what outcome was measured for CN=C=S ?
inactive

Any idea what outcome was measured for CN(N=O)c1ccccc1 ?
inactive

Any idea what outcome was measured for CC(C)(Cl)Cl ?
inactive

Any idea what outcome was measured for NCCc1ccc(O)cc1 ?
inactive

---
Any idea what outcome was measured for Nc1c(Cl)c(Cl)nc(C(=O)O)c1Cl ?
inactive

Any idea what outcome was measured for COC(=O)NS(=O)(=O)c1ccc(N)cc1 ?
inactive
